Entry source: patent US20050261472A1

- assayed target: DD(E) soluble fibrin-derived polypeptide (UniProt P02671)
- protocol details: Kd against DD(E) target
Bridge positions count the residues as written; N and C are the ends.
reported property: pKd
pKd here is simply -log10 of the concentration when that concentration is written in mol/L.

H-RPCDYYGTCFD-NH2 (disulfide 3-9; SMILES C[C@@H](O)[C@@H]1NC(=O)CNC(=O)[C@H](Cc2ccc(O)cc2)NC(=O)[C@H](Cc2ccc(O)cc2)NC(=O)[C@H](CC(=O)O)NC(=O)[C@@H](NC(=O)[C@@H]2CCCN2C(=O)[C@@H](N)CCCNC(=N)N)CSSC[C@@H](C(=O)N[C@@H](Cc2ccccc2)C(=O)N[C@@H](CC(=O)O)C(N)=O)NC1=O) ... 5.47
H-LPCDYYGTCLD-NH2 (disulfide 3-9 (inferred)) ... 5.59
WECPYGLCWI [modified TN6-6 polypeptide …] ... 5.41

Query H-CDYYGTC-NH2 (disulfide 1-7 (inferred)) [truncated peptide CDYYGTC] yields pKd of 4.42

Query H-LPCAYYGTCLD-NH2 (disulfide 3-9; SMILES CC(C)C[C@H](NC(=O)[C@@H]1CSSC[C@H](NC(=O)[C@@H]2CCCN2C(=O)[C@@H](N)CC(C)C)C(=O)N[C@@H](C)C(=O)N[C@@H](Cc2ccc(O)cc2)C(=O)N[C@@H](Cc2ccc(O)cc2)C(=O)NCC(=O)N[C@@H]([C@@H](C)O)C(=O)N1)C(=O)N[C@@H](CC(=O)O)C(N)=O) [alanine scan peptide …] yields pKd of 5.23
